Cited source: patent US20230272055A1

Reported values of IC50 of inhibition of cell proliferation (Ba/F3 cells with MPL and mutCALR Type 1) for individual entries
# target.entity: Human Type 1 mutCALR (human)
# Sequence (chain, as listed by the source limits assumed): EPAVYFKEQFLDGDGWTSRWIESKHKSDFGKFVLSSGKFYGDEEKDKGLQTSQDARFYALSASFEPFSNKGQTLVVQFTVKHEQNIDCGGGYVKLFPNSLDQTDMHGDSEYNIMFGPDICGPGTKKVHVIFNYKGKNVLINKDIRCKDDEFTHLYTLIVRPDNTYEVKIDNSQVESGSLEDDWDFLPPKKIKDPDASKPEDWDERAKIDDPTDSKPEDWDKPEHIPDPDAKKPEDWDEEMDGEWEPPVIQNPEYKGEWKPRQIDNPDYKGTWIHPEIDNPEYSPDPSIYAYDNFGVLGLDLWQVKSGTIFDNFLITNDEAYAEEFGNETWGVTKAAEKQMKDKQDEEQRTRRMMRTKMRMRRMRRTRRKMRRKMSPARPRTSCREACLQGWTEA
# protocol.text: cell-based or functional assay
Reply with just the number (in ng/mL).

Examples with their reported IC50 of inhibition of cell proliferation (Ba/F3 cells with MPL and mutCALR Type 1) follow.
- anti-mutCALR antibody clone 188 (antibody, human IgG1, lambda, N297A, V domains shown) VH: EVQLVQSGAEVKKPGASVKVSCKVSGYTLTELSMQWVRQAPGKGLEWMGGFDPDEGETMYAEKFQGRLTVTEDTSTDTVYMELSSLRSEDTAVYFCATSPGYDFFDYWGQGTLVTVSS VL: SYVLTQPPSVSVAPGQTARITCGGSDIGDEIVHWYQQKPGQAPVLVVYDDSDRPSGIPERFSGSNSGNTATLTISRVEAGDEADYYCQVWDSSSDHLIFGGGTKLTVLG: 4.6
- anti-mutCALR antibody clone 65 (antibody, human IgG1, lambda, N297A, V domains shown) VH: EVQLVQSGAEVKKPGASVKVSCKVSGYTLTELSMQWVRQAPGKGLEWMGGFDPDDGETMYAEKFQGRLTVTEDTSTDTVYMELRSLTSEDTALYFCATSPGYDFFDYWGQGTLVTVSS VL: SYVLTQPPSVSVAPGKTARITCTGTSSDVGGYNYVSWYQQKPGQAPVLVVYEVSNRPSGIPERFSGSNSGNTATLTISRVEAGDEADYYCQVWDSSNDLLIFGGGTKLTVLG: 0.3
- anti-mutCALR antibody clone 184 (antibody, human IgG1, lambda, N297A, V domains shown) VH: EVQLVQSGAEVKKPGASVKVSCKVSGYTLTELSMQWVRQAPGKGLEWMGGFDPDDAETMYAEKFQGRLTVTEDTSTDTVYMELRSLTSEDTALYFCATSPGYDFFDYWGQGTLVTVSS VL: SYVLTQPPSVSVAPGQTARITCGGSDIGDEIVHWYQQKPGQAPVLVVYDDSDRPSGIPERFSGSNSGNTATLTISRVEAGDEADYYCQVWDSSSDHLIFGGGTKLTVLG: 1.9

Moving on to the next binder.
Dear colleague, I am looking for the recorded IC50 of inhibition of cell proliferation (Ba/F3 cells with MPL and mutCALR Type 1) of the following binder: anti-mutCALR antibody clone 128 (antibody, human IgG1, lambda, N297A, V domains shown) VH: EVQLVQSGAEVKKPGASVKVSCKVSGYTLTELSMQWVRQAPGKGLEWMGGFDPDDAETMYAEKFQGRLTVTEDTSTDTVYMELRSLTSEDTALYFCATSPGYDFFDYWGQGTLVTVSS VL: SYELTQPPSVSVAPGKTARITCGGDNIGSKSVHWYQQKPGQAPVLVVYDDSDRPSGIPERFSGSNSGNTATLTINRVEAGDEADYYCQVWDSSNDLLIFGGGTKLTVLG 9.8
